# assayed system: recombinant human NaV1.8 stably transfected HEK cells (Homo sapiens)
# Construct: expressed in transfected cells; host or cells: HEK cells, stably transfected
# Sequence (Q9Y5Y9 whole entry): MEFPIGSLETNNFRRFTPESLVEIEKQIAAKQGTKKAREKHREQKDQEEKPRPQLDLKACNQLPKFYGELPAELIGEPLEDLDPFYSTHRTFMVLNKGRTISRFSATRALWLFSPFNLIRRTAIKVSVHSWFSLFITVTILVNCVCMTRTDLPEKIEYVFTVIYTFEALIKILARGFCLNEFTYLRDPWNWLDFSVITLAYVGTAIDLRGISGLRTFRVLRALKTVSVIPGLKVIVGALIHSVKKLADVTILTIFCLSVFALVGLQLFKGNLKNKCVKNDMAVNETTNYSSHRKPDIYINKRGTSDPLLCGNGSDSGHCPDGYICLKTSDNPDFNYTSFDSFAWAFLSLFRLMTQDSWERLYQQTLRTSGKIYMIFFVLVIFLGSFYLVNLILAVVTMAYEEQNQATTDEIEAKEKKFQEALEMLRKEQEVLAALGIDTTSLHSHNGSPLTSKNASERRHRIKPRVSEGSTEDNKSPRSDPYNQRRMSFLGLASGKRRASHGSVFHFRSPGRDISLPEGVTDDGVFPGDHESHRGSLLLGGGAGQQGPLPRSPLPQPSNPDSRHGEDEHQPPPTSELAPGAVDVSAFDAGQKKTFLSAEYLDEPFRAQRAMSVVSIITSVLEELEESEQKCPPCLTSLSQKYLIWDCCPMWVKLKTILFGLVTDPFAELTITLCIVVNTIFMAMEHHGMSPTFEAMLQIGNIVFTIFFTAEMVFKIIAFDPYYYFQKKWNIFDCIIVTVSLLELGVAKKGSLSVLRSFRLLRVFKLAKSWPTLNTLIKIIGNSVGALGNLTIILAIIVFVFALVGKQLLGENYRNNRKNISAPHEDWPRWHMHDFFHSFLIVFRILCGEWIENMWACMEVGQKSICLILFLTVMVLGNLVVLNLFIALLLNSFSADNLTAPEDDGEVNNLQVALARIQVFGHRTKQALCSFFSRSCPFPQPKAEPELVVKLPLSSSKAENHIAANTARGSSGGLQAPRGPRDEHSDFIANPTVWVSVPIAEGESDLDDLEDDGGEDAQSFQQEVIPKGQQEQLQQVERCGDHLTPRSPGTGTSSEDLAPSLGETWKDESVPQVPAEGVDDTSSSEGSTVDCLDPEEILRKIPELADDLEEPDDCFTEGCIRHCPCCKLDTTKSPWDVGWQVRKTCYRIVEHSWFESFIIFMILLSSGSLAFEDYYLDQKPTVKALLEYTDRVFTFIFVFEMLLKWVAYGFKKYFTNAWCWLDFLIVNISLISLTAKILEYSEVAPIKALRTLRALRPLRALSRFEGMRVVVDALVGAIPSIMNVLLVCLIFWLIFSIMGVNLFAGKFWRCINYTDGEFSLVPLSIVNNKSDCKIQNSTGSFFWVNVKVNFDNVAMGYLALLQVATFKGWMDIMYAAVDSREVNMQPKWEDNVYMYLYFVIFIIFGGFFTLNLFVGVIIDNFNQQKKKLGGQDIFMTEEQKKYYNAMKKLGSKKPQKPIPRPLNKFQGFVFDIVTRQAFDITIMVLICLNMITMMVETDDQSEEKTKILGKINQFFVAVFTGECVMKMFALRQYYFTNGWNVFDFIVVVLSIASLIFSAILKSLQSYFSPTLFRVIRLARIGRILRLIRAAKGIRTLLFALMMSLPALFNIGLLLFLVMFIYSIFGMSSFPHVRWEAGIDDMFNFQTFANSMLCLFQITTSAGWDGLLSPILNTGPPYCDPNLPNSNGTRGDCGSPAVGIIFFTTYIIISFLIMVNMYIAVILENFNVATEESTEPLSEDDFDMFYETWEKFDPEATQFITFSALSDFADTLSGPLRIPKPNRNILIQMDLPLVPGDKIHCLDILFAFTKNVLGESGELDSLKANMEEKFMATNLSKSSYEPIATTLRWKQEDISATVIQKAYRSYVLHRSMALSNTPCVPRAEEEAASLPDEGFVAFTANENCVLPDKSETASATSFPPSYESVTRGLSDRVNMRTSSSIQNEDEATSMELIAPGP
# test description: Compound profiling on NaV1.8, human NaV1.8 cell line, SyncroPatch384PE automated patch clamp assay (Example 102, first set of compounds, Table 16)
# Format: cell-based
# recorded conditions: resting state block (P1 measurement), human NaV1.8 HEK cells, Table 16 (first set of compounds), read-out: P1IC50
pIC50: −log10 of the molar value.
measurement label: pIC50

| compound | measurement label | recorded result |
| --- | --- | --- |
| COc1ncc(C(N)=O)cc1Oc1ncc(C(F)(F)F)cc1C(=O)Nc1cccc(S(C)(=N)=O)c1 (stereo not shown) [Compound 1622] | pIC50 | 6.30 to 6.70 |
| CS(=N)(=O)c1cccc(NC(=O)c2cc(C(F)(F)F)cnc2Oc2cccnc2OC(F)(F)F)c1 (stereo not shown) [Compound 1636] | pIC50 | ≥ 7.70 |
| Cc1nc(OC2CCC2)ccc1Oc1nnc(C(F)(F)F)c(C)c1C(=O)Nc1cccc(S(C)(=N)=O)c1 (single isomer, unassigned) [Compound 1499] | pIC50 | 6.70 to 7.40 |
| CC(C)Oc1ccc(Oc2ncc(C(F)(F)F)cc2C(=O)Nc2ccc(C(N)=O)cc2)c(F)c1 [Compound 1710] | pIC50 | 6.30 to 6.70 |
| COc1ccc(Oc2nnc(C(F)(F)F)c(C)c2C(=O)Nc2cccc(S(C)(=N)=O)c2)c(C)c1F (single isomer, unassigned) [Compound 1505] | pIC50 | ≥ 7.70 |

# query: pIC50 of entry COc1ncc(-c2nnc(Oc3ccc(C#N)cc3OC)c(C(=O)Nc3cccc(S(C)(=N)=O)c3)c2C)s1 (stereo not shown) [Compound 1461, formic acid]
6.30 to 6.70

Returns the measured pIC50 for the input compound. Input: CN=S(C)(=O)c1cccc(NC(=O)c2cc(C(F)(F)F)cnc2Oc2ccc(F)cc2C)c1 (stereo not shown) [Compound 1717]
≥ 7.70
